- assayMethodText: yeast display, Sf9 membrane polyspecificity reagent, FACS + sequencing; frameworks hold sequencing errors
propertyMeasured: polyreactivity (PSR sort gate)

[
  {
    "constructSequence": "QVQLVESGGGLVQAGGSLRLSCAASGSTFFTNTMGWYRQAPGKERELVAAISKSGGSTYYADSVKGRFTISRDNAKNTVYLQMNSLKPEDTAVYYCAASDRYGGRDYWGQGTQVTVSS",
    "polyreactivity (PSR sort gate)": "high polyreactivity"
  },
  {
    "constructSequence": "QVQLVESGGGLVQAGGSLRLSCAASGFTLHVYAMGWYRQAPGKERELVAAISTGGNTNFADSVKGRFTISRDNAKNTVYLQMNSLKPEDTAVYYCNTLGRYSSYYWGLGTQVTVSS",
    "polyreactivity (PSR sort gate)": "high polyreactivity"
  },
  {
    "constructSequence": "QVQLVESGGGLVQAGGSLRLSCAASGFTLGVNAMGWYRQAPGKERELVAAISRGGSTDYADSVKGRFTISRDNAKNTVDLQMYSLKPEDTAVYYCAAETYAWYRGWEGYWGPGTQVTVSS",
    "polyreactivity (PSR sort gate)": "high polyreactivity"
  },
  {
    "constructSequence": "QVQLVESGGGLVQAGGSLRLSCAASGTLSSYAMGWYRQAAGKERELVAALSLSGGSTYADSVKGRFTISRDNAYNTVYLQMNSLKPEDTAVYYCAKDWDVDITWSFSIYNYWGQGTQVTVSS",
    "polyreactivity (PSR sort gate)": "low polyreactivity"
  },
  {
    "constructSequence": "QVQLVESGGGLVQAGGSLRLSCAASGSTFAKYAMGWYRQAPGKERELVAAISLSGGSTYYADSVKGRFTISRDNAKNTVYLQMNSLKPEDTAVYYCNTPPSRYVRYGIYRYDYWGQGTQVTVSS",
    "polyreactivity (PSR sort gate)": "high polyreactivity"
  },
  {
    "constructSequence": "QVQLVESGGGLVQAGGSLRLSCAASGFIFRSNAMGWYRQAPWKEREFVAAITYSSGSTYYRNSVKGRFTISRDNAKNTVYLQMNSLKPEDTAVYYCATPVTNGFDYWGQGTQVTVSS",
    "polyreactivity (PSR sort gate)": "high polyreactivity"
  },
  {
    "constructSequence": "QVQLVESGGGLVQAGGSLRLSCAASGRNFSDYAMGWSRQAPGKERELVATITSGDSTNYADSVKGRFTISRDNAKNTVYLQMNSLKPEDTAVYYCNADRFADYDYWGQGTQVTVSS",
    "polyreactivity (PSR sort gate)": "low polyreactivity"
  },
  {
    "constructSequence": "QVQLVESGGGLVQAGGSLRLSCAASGITLRRYAMGWYRQAPGKDRELVDVISVSGGRTHYADSVKGRFTISRDNAKNSVYLQMNSLNPEDTAVYYGAAHFSYRYYTDEVGYWGQGTQVTVSS",
    "polyreactivity (PSR sort gate)": "high polyreactivity"
  }
]

Given item QVQLVESGGGLVQAGGSLRLSCASSGRTFVSNAKGWYRQAPGKERELVAVITGIGGNTYYADSVKGRFTISRDNAKNSDYLQMNSLKPEDTAVYYCAADISLVSYYYWGQGTQVTVSS , the value recorded as its polyreactivity (PSR sort gate) is low polyreactivity

Reported polyreactivity (PSR sort gate) of QVQLVESGGCLVQAGGSLRLSCAASGLIFAEYAMGWYRQAPGKERELVARITSGGSTDYADSVKGRFTISRDNAKNTVFLQMNSLKPEDTAVYYCAAAYAYWGQGTQVTVSS : low polyreactivity

// polyreactivity (PSR sort gate) value for QFQLVESGGGLVQAGGSLRLSCAASGRIFARNTMGWYRQAAGKERELVAAITYSGGNTYYADSVKGRFTISRDNAKNTVYLQMNSLKPEDTAVYDCNKASFGRLRKKIMDYWGQGTQVTVSS : high polyreactivity

The sequence QVQLVESGGGLVQAGGSLRLSCAASVSTFWFYAMGWYRQAPGKERELVAVISNSGSTYYADSVKGRFTISRDNAKNTVYLQMNSLKPEDTAVYYCAADVEGWTVESDVYRVGYDYWGQGTQVTVSS showed polyreactivity (PSR sort gate) equal to low polyreactivity

// provenance: the nanobody polyreactivity screen of Harvey et al. (2022)
